test: 14-day toxicity study in dogs, toxicokinetics; format: in vivo, beagle dogs; settings: both sexes, beagle, dog, plasma, all groups
readout_kind: Cmax (ng/mL)
Your answer is read as ng/mL, so omit the unit and give the number.

Lab note: COc1ccc(C[C@@H](C)[C@@H](C)Cc2ccc(OC)c(OC)c2)cc1OC [M4N, tetra-O-methyl-nordihydroguaiaretic acid] gave Cmax of 1000

====

assay: 14-day toxicity study in dogs, toxicokinetics; format: in vivo, beagle dogs; details: both sexes, beagle, dog, plasma, Groups 3 and 4 except Group 3 males, read-out: median Tmax
readout_kind: Tmax

Lab note: COc1ccc(C[C@@H](C)[C@@H](C)Cc2ccc(OC)c(OC)c2)cc1OC [M4N, tetra-O-methyl-nordihydroguaiaretic acid] gave Tmax of 4 h

====

pIC50 for assorted molecules
system: HIV-1; details: read-out: Inhibitory Concentration (IC50 or EC50), Cos cells
Scale: negative log10 of molar concentration, which is what pIC50 denotes.

COc1cc(CC(C)C(C)Cc2ccc(O)c(O)c2)ccc1O (centres unmarked) [Mal.4, 3′-O-methyl nordihydroguaiaretic acid] | 4.60

Lab note: C[C@H](Cc1ccc(OC(=O)CN(C)C)c(OC(=O)CN(C)C)c1)[C@@H](C)Cc1ccc(OC(=O)CN(C)C)c(OC(=O)CN(C)C)c1 gave pIC50 of 4.44

====

experiment: 14-day toxicity study in rats, toxicokinetics; assay type: in vivo; settings: female, rat, plasma, 500 mg/kg, females, Group 10, Day 14
readout_kind: Tmax (h)
Your answer is read as h, so omit the unit and give the number.

Lab note: COc1ccc(C[C@@H](C)[C@@H](C)Cc2ccc(OC)c(OC)c2)cc1OC [M4N, tetra-O-methyl-nordihydroguaiaretic acid] gave Tmax of 4

====

experiment: 14-day toxicity study in dogs, toxicokinetics; format: in vivo, beagle dogs; settings: both sexes, beagle, dog, plasma, Group 2 (10 mg/kg), Day 14, read-out: plasma concentration, only sample greater than LOQ
readout_kind: concentration at 14 day (ng/mL)
Your answer is read as ng/mL, so omit the unit and give the number.

Lab note: COc1ccc(C[C@@H](C)[C@@H](C)Cc2ccc(OC)c(OC)c2)cc1OC [M4N, tetra-O-methyl-nordihydroguaiaretic acid] gave concentration at 14 day of 471
